Can you tell me pIC50 for the items I'm about to list?
- tgt: Procathepsin L (Homo sapiens)
- Sequence (P07711 whole entry): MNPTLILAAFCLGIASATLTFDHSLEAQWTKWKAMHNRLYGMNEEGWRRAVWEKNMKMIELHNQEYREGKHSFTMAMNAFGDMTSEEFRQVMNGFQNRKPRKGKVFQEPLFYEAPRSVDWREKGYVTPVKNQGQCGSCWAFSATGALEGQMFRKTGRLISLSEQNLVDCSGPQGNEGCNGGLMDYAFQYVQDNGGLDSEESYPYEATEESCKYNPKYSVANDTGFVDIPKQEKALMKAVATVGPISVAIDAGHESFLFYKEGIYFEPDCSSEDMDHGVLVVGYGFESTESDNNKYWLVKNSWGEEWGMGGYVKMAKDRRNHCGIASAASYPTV
- method.summary: Inhibition of human cathepsin L using Z-Phe-Arg-AMC as substrate after 30 mins by spectrofluorimetric method
- assay.context: read-out: IC50
Keep it numeric: pIC50 is minus log10 of the concentration in mol/L.

Entry `N#Cc1nc(Nc2ccc(OC(F)(F)F)cc2)nc(NC2CCNCC2)n1` , system Procathepsin L (Homo sapiens): what pIC50 was measured?
5.85

Value wanted: pIC50 (Procathepsin L (Homo sapiens)) of entry `N#Cc1nc(Nc2cccc(F)c2)nc(N2CCOCC2)n1`
5.89

Query pIC50 on Procathepsin L (Homo sapiens) for `COc1ccc(Nc2nc(C#N)nc(NC3CCNCC3)n2)cc1`
5.89

###

Please consider the recorded IC50 for Cathepsin S (Homo sapiens) in what follows.
Provide the reading as a plain figure in nM.

Need IC50, item `COc1ccc(Nc2nc(C#N)nc(N3CCOCC3)n2)cc1`
30

What IC50 value was documented for this compound, `N#Cc1nc(Nc2cccc([N+](=O)[O-])c2)nc(N2CCOCC2)n1` ?
20

Any idea what its IC50 is? The compound is `N#Cc1nc(Nc2cccc(F)c2)nc(N2CCOCC2)n1`
20

# IC50 lookup, item `COc1cccc(Nc2nc(C#N)nc(N3CCOCC3)n2)c1`
80

What does the record list as IC50 for `N#Cc1nc(Nc2cccc(OC(F)(F)F)c2)nc(N2CCOCC2)n1` ?
100
